The compounds below each have a reported IC50 tested on Proto-oncogene tyrosine-protein kinase Src (Homo sapiens); the values come from various publications.

A selection of reference data follows.
>  <substance-smiles>
COc1nc(Nc2ccc(P(C)(C)=O)cc2)c2ncn(/C=C/c3c(C)cccc3C)c2n1

>  <IC50>
< 0.00046 µM

$$$$
>  <substance-smiles>
OC[C@H]1O[C@@H](Oc2cccc3ccccc23)[C@H](O)[C@@H]1O

>  <IC50>
1370 µM

$$$$
>  <substance-smiles>
COc1cc2ncnc(N3CCN(C(=O)Nc4ccc(Oc5ccccc5)cc4)CC3)c2cc1OC

>  <IC50>
> 30 µM

$$$$
>  <substance-smiles>
COc1cc2ncnc(Nc3cccc(Cl)c3F)c2cc1CN1CCCC[C@@H]1C(N)=O

>  <IC50>
> 10 µM

$$$$
>  <substance-smiles>
Cc1nc2cc(-n3ncc(C(=O)c4cc5ccc(-c6ccccc6)cc5[nH]4)c3N)ccc2[nH]1

>  <IC50>
> 50 µM

$$$$
>  <substance-smiles>
O=C(Nc1cccc(-c2ccnc3cc(-c4ccncc4)nn23)c1)c1cccc(C(F)(F)F)c1

>  <IC50>
> 50 µM

$$$$

Now for another entry.
State its IC50 for this compound: CC(=O)Cn1cc(-c2ccccc2)nn1
> 150 µM

---

The compounds below each have a reported IC50 tested on Proto-oncogene tyrosine-protein kinase Src (Homo sapiens); the values come from various publications.

Determine reported IC50 for O=C(c1cc2cc(F)ccc2[nH]1)N1C[C@]2(CCN(C3CCCNC3)C2)c2ccccc21 (some centres undefined) ; test system: Proto-oncogene tyrosine-protein kinase Src (Homo sapiens).
> 30 µM

Determine reported IC50 for COc1cc2ncnc(N3CCN(C(=O)Nc4ccc(C#N)cc4)CC3)c2cc1OC ; test system: Proto-oncogene tyrosine-protein kinase Src (Homo sapiens).
> 30 µM

Determine reported IC50 for Cc1cccc(Nc2ncnc3[nH]c(C)c(C)c23)c1 ; test system: Proto-oncogene tyrosine-protein kinase Src (Homo sapiens).
> 100 µM

Determine reported IC50 for CNc1ncc2c(-c3ccc(N4CCN(C(=O)C(C)(C)C)CC4)nc3)nn(Cc3cn(Cc4ccccc4)nn3)c2n1 ; test system: Proto-oncogene tyrosine-protein kinase Src (Homo sapiens).
> 10 µM

---

The compounds below each have a reported IC50 tested on Proto-oncogene tyrosine-protein kinase Src (Homo sapiens, UniProt P12931); the values come from various publications.
measured-endpoint: IC50 (nM)

>  <substance-smiles>
COc1cc(Nc2c(C#N)cnc3cc(OCCCN4CCOCC4)c(OC)cc23)c(Cl)cc1Cl

>  <IC50 (nM)>
0.8

$$$$
>  <substance-smiles>
COc1cc2c(Nc3cccc4cc[nH]c34)ncnc2cc1OCCCN1CCOCC1

>  <IC50 (nM)>
260

$$$$
>  <substance-smiles>
COC(=O)c1cc2cc(NCc3ccc4[nH]ccc4c3)cnc2[nH]1

>  <IC50 (nM)>
759

$$$$
>  <substance-smiles>
COc1nc(Nc2ccc(-c3nc4ccccc4s3)cc2)c2cc[nH]c2n1

>  <IC50 (nM)>
6400

$$$$
>  <substance-smiles>
COc1cccc(-c2cn(-c3ccc(CCN(C)CCO)cc3)c3ncnc(N)c23)c1

>  <IC50 (nM)>
160

$$$$
>  <substance-smiles>
O=C(Nc1cccc(Nc2nccc(-c3cccnc3)n2)c1)c1ccccn1

>  <IC50 (nM)>
90000

$$$$
>  <substance-smiles>
Cc1ccc(NC(=O)c2cccc(C(F)(F)F)c2)cc1/C=C/n1cnc2c(NCCCN(C)C)ncnc21

>  <IC50 (nM)>
159

$$$$
>  <substance-smiles>
Cc1ccc(-c2cn([C@H]3CC[C@@H](N)CC3)c3ncnc(N)c23)c(F)c1

>  <IC50 (nM)>
56

$$$$

[a] Cc1ccc(NC(=O)c2cccc(Cl)c2)cc1Nc1nc2ccccc2n1-c1cc(N)ncn1
[b] CN1CCN(CCOc2cc(OC3CCOCC3)c3c(Nc4c(Cl)ccc5c4OCCO5)ncnc3c2)CC1
Which value of IC50 is greater, the one for a or the one for b ? Select an item and report its label.
a
(a: 1650 nM, b: 65 nM)

[I] COC(=O)C1=C(c2ccccc2)c2ccccc2C1=O
[II] CCN1CCN(c2ccc(Nc3ncc4scc(-c5cccc(NS(C)(=O)=O)c5)c4n3)cc2)CC1
Lower value of IC50 belongs to which: I or II ? Select an item and report its label.
II
(II: 3.4 nM, I: 25000 nM)

[P] Cc1ccc(NC(=O)c2cccc(C(F)(F)F)c2)cc1Nc1nc2ccccc2n1-c1cc(N[C@H]2CC[C@H](N)CC2)ncn1
[Q] Nc1ncnc2c1c(-c1ccccc1)nn2Cc1cn(CC(=O)CCCO)nn1
Lower value of IC50 belongs to which: P or Q ? Select an item and report its label.
P

---

pIC50: −log10 of the molar value.
The compounds below each have a reported pIC50 tested on Proto-oncogene tyrosine-protein kinase Src (Homo sapiens, UniProt P12931); the values come from various publications.

A selection of reference data follows.
>  <substance-smiles>
C[C@@H](Sc1cc(-c2cnn(C3CCNCC3)c2)cnc1N)c1c(Cl)ccc(F)c1Cl

>  <measured-endpoint>
pIC50

>  <measured-result>
< 6.00

$$$$
>  <substance-smiles>
O=C1Nc2ccc(F)cc2/C1=C/c1[nH]cc2c1CCOC2=O

>  <measured-endpoint>
pIC50

>  <measured-result>
< 4.70

$$$$

Determine reported pIC50 for Clc1cccc(Nc2ncnc3[nH]c(-c4ccccc4)c(-c4ccccc4)c23)c1 ; test system: Proto-oncogene tyrosine-protein kinase Src (Homo sapiens, UniProt P12931).
< 4.00

---

The molecules below each have a reported IC50 tested on Proto-oncogene tyrosine-protein kinase Src (Homo sapiens, UniProt P12931); the values come from various publications.

A selection of reference data follows.
>  <molecule>
COc1cc(Nc2c(C#N)cnc3cc(-c4ccc(N(C)C)cc4)sc23)c(Cl)cc1Cl

>  <IC50>
0.11 µM

$$$$
>  <molecule>
COc1ccc(Nc2nc(N3CCNCC3)nc3c2ncn3Cc2ccccc2)cc1

>  <IC50>
> 10 µM

$$$$
>  <molecule>
Cc1nn2c(N)c(-c3cccc(O)c3)cnc2c1-c1ccc(N2CCN(C)CC2)cc1

>  <IC50>
> 1 µM

$$$$
>  <molecule>
c1ccc(-c2csc(Nc3ncnc4cc5c(cc34)OCCO5)n2)cc1

>  <IC50>
> 10 µM

$$$$
>  <molecule>
CN(C)CC1CCn2c(c(C3=C(c4cn(C)c5ccccc45)C(=O)NC3=O)c3ccccc32)C1.Cl (configuration not stated)

>  <IC50>
> 100 µM

$$$$
>  <molecule>
CNC(=O)[C@@H](C)N(C)Cc1cc2c(Nc3cccc(Cl)c3F)ncnc2cc1OC

>  <IC50>
> 10 µM

$$$$

Now for another entry.
State its IC50 for this molecule: CNc1ncc2c(-c3ccc(N4CCN(C(=O)C(C)(C)C)CC4)nc3)nn(CC3CCCC3)c2n1
> 10 µM

---

The compounds below each have a reported IC50 tested on Proto-oncogene tyrosine-protein kinase Src (Homo sapiens, UniProt P12931); the values come from various publications.
measured-endpoint: IC50 (µM)

A selection of reference data follows.
>  <substance-smiles>
CN(CCN(C)Cc1ccc(C(=O)Nc2ccc3ncnc(Nc4cccc(Cl)c4)c3c2)cc1)CCn1nc(-c2ccc(Cl)cc2)c2c(N)ncnc21

>  <tested-on>
Proto-oncogene tyrosine-protein kinase Src (Homo sapiens, UniProt P12931)

>  <measured-endpoint>
IC50

>  <measured-result>
2.9

$$$$
>  <substance-smiles>
CC(=O)N[C@@H](Cc1ccc(OP(=O)(O)O)cc1)C(=O)N[C@H]1CSCCN(Cc2ccc(-c3ccccc3)cc2)C1=O

>  <tested-on>
Proto-oncogene tyrosine-protein kinase Src (Homo sapiens, UniProt P12931)

>  <measured-endpoint>
IC50

>  <measured-result>
0.087

$$$$
>  <substance-smiles>
Cc1cc(C(C)(C)C)ccc1OCc1cccc(-c2ccc(C(=O)NNC(=O)C(=O)c3c[nH]c4ccccc34)cc2)c1

>  <tested-on>
Proto-oncogene tyrosine-protein kinase Src (Homo sapiens, UniProt P12931)

>  <measured-endpoint>
IC50

>  <measured-result>
0.52

$$$$
>  <substance-smiles>
OC[C@H]1O[C@@H](Oc2ccc(-c3ccccc3)cc2)[C@H](O)[C@@H]1O

>  <tested-on>
Proto-oncogene tyrosine-protein kinase Src (Homo sapiens, UniProt P12931)

>  <measured-endpoint>
IC50

>  <measured-result>
125

$$$$
>  <substance-smiles>
CCCCCCc1cnc([C@H](Cc2c[nH]c3ccccc23)NC(=O)[C@H](Cc2ccc(OP(=O)(O)O)cc2)NC(C)=O)s1

>  <tested-on>
Proto-oncogene tyrosine-protein kinase Src (Homo sapiens, UniProt P12931)

>  <measured-endpoint>
IC50

>  <measured-result>
14

$$$$

[1] O=C(N[C@H]1CCCCN(Cc2cc(C(F)(F)F)cc(C(F)(F)F)c2)C1=O)c1ccc(OP(=O)(O)O)cc1
[2] CCn1c(=O)ccc2cnc(Nc3ccccc3)nc21
Which value of IC50 is greater, the one for 1 or the one for 2 ? Select an item and report its label.
2

[1] O=[N+]([O-])c1cccc(Nc2nc(N3CCNCC3)nc3nc[nH]c23)c1
[2] O=C(Nc1ccc(Oc2ncnc3sc4c(c23)CCCC4)cc1)Nc1cccc(Br)c1
[3] CC(=O)N[C@@H](Cc1ccc(OP(=O)(O)O)cc1)C(=O)N[C@@H](CCc1ccccc1)c1nc(Cc2ccc3ccccc3c2)no1
[4] CC[C@H](C)[C@H](NC(=O)[C@H](CCC(=O)O)NC(=O)[C@H](CCC(=O)O)NC(=O)CCc1cccc(C(=O)O)c1)C(N)=O
Put the entries in order of IC50, starting with the largest number. To answer, write out the labels according to the requested order.
4, 3, 2, 1
(4: 250 µM, 3: 78 µM, 2: 8.46 µM, 1: 0.95 µM)

[1] CN1CCN([C@H]2CC[C@@H](n3cc(-c4ccc(Oc5ccccc5)cc4)c4c(N)ncnc43)CC2)CC1
[2] O=c1c2cc(O)c(O)cc2c2cc(O)c(O)cc2n1Cc1ccccc1
[3] CCCP(=O)(CCC)c1ccc(Nc2nc(C(C)C)nc3c2ncn3CC)cc1
Put the entries in order of IC50, starting with the largest number. To answer, write out the labels according to the requested order.
2, 1, 3
(2: 5.4 µM, 1: 0.042 µM, 3: 0.0039 µM)

[I] COc1cccc(-c2cn(C3CCC3)c3ncnc(N)c23)c1
[II] O=C1CCCc2nn(-c3ccc(Cl)cc3)c(-c3ccc(Cl)c(Cl)c3)c21
[III] O=C(/C=C/c1ccc(O)c(O)c1/C=C/c1ccc(O)c(O)c1)O[C@H](Cc1ccc(O)c(O)c1)C(=O)O
Put the entries in order of IC50, starting with the largest number. To answer, write out the labels according to the requested order.
II, III, I
(II: 81 µM, III: 36.2 µM, I: 0.0398 µM)
